- target-desc: Prostaglandin G/H synthase 1 (Ovis aries)
- Sequence (P05979 whole entry): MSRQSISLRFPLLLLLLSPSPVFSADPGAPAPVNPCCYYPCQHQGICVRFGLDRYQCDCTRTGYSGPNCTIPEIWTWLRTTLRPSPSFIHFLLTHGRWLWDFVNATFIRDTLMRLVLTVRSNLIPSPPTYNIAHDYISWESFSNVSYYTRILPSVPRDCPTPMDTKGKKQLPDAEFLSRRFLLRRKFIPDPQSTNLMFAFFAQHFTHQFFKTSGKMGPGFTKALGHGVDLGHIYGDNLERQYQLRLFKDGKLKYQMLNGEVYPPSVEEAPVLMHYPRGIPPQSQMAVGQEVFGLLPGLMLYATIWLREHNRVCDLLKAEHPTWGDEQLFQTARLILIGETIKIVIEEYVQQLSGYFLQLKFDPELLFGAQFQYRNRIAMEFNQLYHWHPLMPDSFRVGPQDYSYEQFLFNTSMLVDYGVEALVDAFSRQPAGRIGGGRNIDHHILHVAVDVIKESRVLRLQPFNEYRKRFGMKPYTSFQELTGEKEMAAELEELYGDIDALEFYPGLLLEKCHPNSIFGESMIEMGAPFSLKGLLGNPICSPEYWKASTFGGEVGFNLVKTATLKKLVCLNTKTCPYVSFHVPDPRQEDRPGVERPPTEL
Documented pIC50 across a set of molecules
API: returns pIC50 as number; meaning -log10 of concentration in mol/L.

1) CC(Oc1cc(=O)oc2ccccc12)C(=O)Nc1ccncc1 (racemic) : 5.02

Documented pIC50 of CC(Oc1cc(=O)oc2ccccc12)C(=O)Nc1cccc2c(=O)[nH]ccc12 (racemic) : 5.53

Documented pIC50 of CC(Oc1cc(=O)oc2ccccc12)C(=O)NC12CC3CC(C)(CC(C)(C3)C1)C2 (mixture of isomers) : 5.48

Documented pIC50 of CC(Oc1cc(=O)oc2ccccc12)C(=O)Nc1ccc(F)cc1F (racemic) : 5.79
